Below is a list of entries, each paired with its recorded reverse-splicing fitness value.
B1: Azoarcus group I ribozyme (parent)
chain: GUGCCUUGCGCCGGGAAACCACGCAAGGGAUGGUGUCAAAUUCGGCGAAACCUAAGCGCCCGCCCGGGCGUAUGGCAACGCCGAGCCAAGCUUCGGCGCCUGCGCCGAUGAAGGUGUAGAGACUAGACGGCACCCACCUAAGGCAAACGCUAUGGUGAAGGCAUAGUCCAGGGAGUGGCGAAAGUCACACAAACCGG

Variants of: B1
Assay: reverse-splicing fitness (ratio to wild type); higher = more active; in vitro selection; Mg2+ level not given
Give the figure only, with no unit attached.

Before answering, review these 5 worked examples.
> print(dat)
                        variant.label  quantitative.result
1  C82U A111U A145G C150A C169U U176A                0.016
2  C82U A111U A120G A145G C150U C169A              0.00995
3        C82U A111U A120G C150G U176A              0.00524
4       A111G A120U C150U C169U U176G               0.0032
5       A111C A145G C150U C169A U176G              0.00725

Entry C82G A145G C150G C169G U176G needs its reverse-splicing fitness filled in; supply it.
0.00613

Supply reported reverse-splicing fitness belonging to this variant: C82A A111U A120G A145U C150A C169G U176A
0.0146

Give the value of reverse-splicing fitness reported for the following: C82A A111U A120U A145C C150G
0.0059

Return the recorded reverse-splicing fitness value; entry: C82G A111C A120U A145G C150U U176G
0.00399

Tell me measured reverse-splicing fitness for C82G A111C A120U C150G U176C please.
0.00675

Look up and report measured reverse-splicing fitness for this entry: C82G A120C A145C C150U C169U U176A
0.0146

Please give measured reverse-splicing fitness of the following entry: C82G A145U C150A C169U U176A
0.0124

Dear colleague, please send me the reported reverse-splicing fitness for A111C A120G A145C C150A U176G when you can.
0.00357

Please supply the value of reported reverse-splicing fitness for the item A111U A120U C150G U176A
0.00718

# return recorded reverse-splicing fitness for entry C82A A111G A120G C150G U176G
0.00346

Could you please provide reported reverse-splicing fitness for C82U A111U A120C A145G C150U C169G ? Thanks!
0.00811

Let me know recorded reverse-splicing fitness for C82A A120C C169U U176A , thanks.
0.0172

Supply reverse-splicing fitness value. Item: C82U A111G C150G C169A U176C
0.0121

Give the reported value of reverse-splicing fitness for this record: C82G C150U C169U U176C
0.0159

Please supply the value of reported reverse-splicing fitness for the item C82U A111C A120U C150U C169U U176C
0.00387

Identify measured reverse-splicing fitness associated with C82G A111C A120U A145C C150G U176A
0.00364

Name the recorded reverse-splicing fitness of the variant listed here: A145G U176G
0.325
